Would you kindly list inhibition % (higher = more inhibition) for each of these compounds?
target: PEG-3 (UniProt Q6IN02); test: GAPDH versus PEG-3 reporter suppression – cell-based, luminescence, counter-screen for PEG-3 promoter inhibitor project, SAR follow-up (AID 651551); conditions: HeLa PEG-Prom / GAPDH luciferase reporter, 6 or 24 h, run 3, 24 h; at 99 µM (top of the series)
Report only the number, with the unit % understood.

Q: Which inhibition % (higher = more inhibition) is reported for this compound? `CCCn1nc(C(=O)Nc2nc(-c3ccccn3)cs2)c2ccccc2c1=O`
Result: 40.8

Q: Which inhibition % (higher = more inhibition) is reported for this compound? `CCn1nc(C(=O)Nc2nc(-c3ccccn3)cs2)c2ccccc2c1=O`
Result: 39.1

Q: Which inhibition % (higher = more inhibition) is reported for this compound? `COc1ccc(Cl)cc1Nc1nc(-c2sc(NC(=O)c3ccccc3)nc2C)cs1`
Result: 60.5

Q: Which inhibition % (higher = more inhibition) is reported for this compound? `Cc1cc(NC(=O)c2ccccc2)n(-c2nc3ccccc3[nH]2)n1`
Result: 79.1

Q: Which inhibition % (higher = more inhibition) is reported for this compound? `COc1ccc(-n2nc(C(=O)NCC(=O)Nc3cc(OC)c(OC)c(OC)c3)c3ccccc3c2=O)cc1OC`
Result: 34.1

Q: Which inhibition % (higher = more inhibition) is reported for this compound? `CCCn1nc(C(=O)Nc2nc(-c3ccncc3)cs2)c2ccccc2c1=O`
Result: 44.6

Q: Which inhibition % (higher = more inhibition) is reported for this compound? `Cc1nc(NC(=O)c2ccccc2)sc1-c1csc(Nc2cccc(Cl)c2C)n1`
Result: -61.4

Q: Which inhibition % (higher = more inhibition) is reported for this compound? `COc1ccccc1Nc1nc(-c2sc(NC(=O)c3ccco3)nc2C)cs1`
Result: 21.6

---

target: PEG-3 (UniProt Q6IN02); assay: GAPDH versus PEG-3 reporter suppression – cell-based, luminescence, counter-screen for PEG-3 promoter inhibitor project, SAR follow-up (AID 651551); settings: HeLa PEG-Prom / GAPDH luciferase reporter, 6 or 24 h, run 3, 24 h; at 99 µM (top of the series)
measured.endpoint: inhibition % (higher = more inhibition) (%)
Report only the number, with the unit % understood.

Q: Which inhibition % (higher = more inhibition) is reported for this compound? `Cc1ccc(Cl)cc1Nc1nc(-c2sc(NC(=O)c3ccco3)nc2C)cs1`
Result: -26.2

Q: Which inhibition % (higher = more inhibition) is reported for this compound? `COc1ccc(-n2nc(C(=O)NCC(=O)Nc3ccc(OC)c(OC)c3)c3ccccc3c2=O)cc1`
Result: 34.1

Q: Which inhibition % (higher = more inhibition) is reported for this compound? `O=C(Nc1nc(-c2ccccc2)cs1)c1nn(-c2ccccc2)c(=O)c2ccccc12`
Result: 11.5

Q: Which inhibition % (higher = more inhibition) is reported for this compound? `CCCn1nc(C(=O)Nc2nc3ccccc3s2)c2ccccc2c1=O`
Result: 16.5

Q: Which inhibition % (higher = more inhibition) is reported for this compound? `O=C(Nc1nccs1)c1nn(-c2ccccc2)c(=O)c2ccccc12`
Result: 29.1
